ASSAYED_TARGET: T1, human CTLA-4 (Y201V), full length, on transfected cells (human, UniProt P16410 36-223)
T1 construct: whole, on cells; also called hCTLA-4; HEK293-hCTLA-4 (Y201V)
T1 sequence (looked up): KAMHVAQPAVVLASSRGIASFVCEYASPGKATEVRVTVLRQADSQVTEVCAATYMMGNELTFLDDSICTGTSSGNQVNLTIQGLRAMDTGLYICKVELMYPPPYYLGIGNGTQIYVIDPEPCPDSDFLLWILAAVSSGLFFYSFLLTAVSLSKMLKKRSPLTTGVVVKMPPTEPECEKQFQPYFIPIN
MEASUREMENT_DESCRIPTION: FACS, human CTLA-4 expressing cells
EXPERIMENTAL_READOUT: MFI at 8 nM
Lab note: jot the number down without any unit.

Given the binder 40C4C6 fully human CTLA-4 antibody (human IgG1, kappa) (antibody, V domains shown, also called mAb09; mAb009) VH: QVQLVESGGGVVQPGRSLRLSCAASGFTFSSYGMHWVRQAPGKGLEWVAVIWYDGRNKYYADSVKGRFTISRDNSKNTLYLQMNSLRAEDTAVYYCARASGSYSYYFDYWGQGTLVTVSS VL: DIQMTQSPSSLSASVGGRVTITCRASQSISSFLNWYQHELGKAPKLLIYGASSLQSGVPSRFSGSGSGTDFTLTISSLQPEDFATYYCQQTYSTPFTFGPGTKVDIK , what is its reported MFI at 8 nM?
795
